# Plant response rating, Velvetleaf annotations
- Tested on: velvetleaf (Abutilon theophrasti)
- Protocol: Test A pre-/postemergence plant response
- Type: in vivo
- Condition Summary: Postemergence, 500 g ai/ha; 0 to 100 scale, 0 no effect, 100 complete control
Form: value (number only, do not type unit).

Would you please look over these solved cases?
Cn1ncc(O)c(-c2nn(-c3ccc(Cl)cc3)cc2Br)c1=O    0
CCc1c(C)c(-c2ccc(Cl)cc2)nn1-c1c(O)cnn(C)c1=O    20
COc1ccc(-c2cc(C)n(-c3c(O)cnn(C)c3=O)n2)cc1    0

Shift focus to the following entry.
Noted for CCc1cc(-c2ccc(Cl)c(Cl)c2)nn1-c1c(O)cnn(C)c1=O : its Plant response rating, Velvetleaf reads 0

---

- Tested on: barnyardgrass (Echinochloa crus-galli)
- Protocol: Test A pre-/postemergence plant response
- Format: in vivo
- Condition Summary: Preemergence, 125 g ai/ha; 0 to 100 scale (0 no effect, 100 complete control)
Readout Type: Plant response rating, Barnyardgrass
Form: value (number only, do not type unit).

Noted for Cc1cc(-c2ccc(Cl)cc2)nn1-c1c(OS(=O)(=O)c2ccccc2[N+](=O)[O-])cnn(C)c1=O : its Plant response rating, Barnyardgrass reads 100

---

- Tested on: large crabgrass (Digitaria sanguinalis)
- Protocol: Test A pre-/postemergence plant response
- Assay type: in vivo
- Condition Summary: Postemergence, 125 g ai/ha; 0 to 100 scale, 0 no effect, 100 complete control
- Excerpt: […] Plants ranged in height from 2 to 10 cm and were in the one- to two-leaf stage for the postemergence treatment. Treated plants and untreated controls were maintained in a greenhouse for approximately 10 days, after which time all treated plants were compared to untreated controls and visually evaluated for injury. […]
Readout Type: Plant response rating, Crabgrass, Large
Form: value (number only, do not type unit).

Would you please look over these solved cases?
CCc1cc(-c2ccc(C(F)(F)F)cc2)nn1-c1c(O)cnn(CC)c1=O    100
Cc1nn(-c2ccc(Cl)cc2)cc1-c1c(O)cnn(C)c1=O    0

Noted for CCc1cc(-c2ccc(C(F)(F)F)cc2)nn1-c1c(OC(=O)C2CCCCC2)cnn(C)c1=O : its Plant response rating, Crabgrass, Large reads 100

---

- Tested on: soybean (Glycine max)
- Protocol: Test B pre-/postemergence plant response
- Type: in vivo
- Condition Summary: Preemergence; 8 g ai/ha; scale 0 to 100
Readout Type: Soybean plant response rating

Cc1cc(-c2ccc(Cl)cc2)nn1-c1c(OS(C)(=O)=O)cnn(C)c1=O [Compound 36]    0

Noted for CCc1cc(-c2ccc(Cl)cc2)nn1-c1c(OC(=O)OC(C)C)cnn(C)c1=O [Compound 41] : its Soybean plant response rating reads 0

Noted for Cn1ncc(O)c(-c2nn(-c3ccc(Cl)cc3)cc2Br)c1=O [Compound 31] : its Soybean plant response rating reads 0

Noted for COC(=O)Oc1cnn(C)c(=O)c1-n1nc(-c2ccc(Cl)cc2)cc1C [Compound 33] : its Soybean plant response rating reads 0

Noted for CCc1cc(-c2ccc(C(F)(F)F)cc2)nn1-c1c(OS(C)(=O)=O)cnn(C)c1=O [Compound 19] : its Soybean plant response rating reads 0

---

- Test system: broadleaf signalgrass (Brachiaria platyphylla)
- Protocol: Test E pre-/postemergence plant response
- Type: in vivo
- Condition Summary: Postemergence, 8 g ai/ha, scale 0 to 100
Readout Type: Plant response rating, Signalgrass

Cc1cc(-c2ccc(Cl)cc2)nn1-c1c(OS(C)(=O)=O)cnn(C)c1=O [Compound 36]    10

Considering Cc1cc(-c2ccc(Cl)cc2)nn1-c1c(OC(=O)C(C)C)cnn(C)c1=O [Compound 34] , its Plant response rating, Signalgrass with broadleaf signalgrass (Brachiaria platyphylla) was recorded as 75

Considering COC(=O)Oc1cnn(C)c(=O)c1-n1nc(-c2ccc(Cl)cc2)cc1C [Compound 33] , its Plant response rating, Signalgrass with broadleaf signalgrass (Brachiaria platyphylla) was recorded as 75

Considering CCc1cc(-c2ccc(C(F)(F)F)cc2)nn1-c1c(OS(C)(=O)=O)cnn(C)c1=O [Compound 19] , its Plant response rating, Signalgrass with broadleaf signalgrass (Brachiaria platyphylla) was recorded as 80

---

# Plant response rating, Wheat annotations
- Tested on: wheat (Triticum aestivum)
- Protocol: Test A pre-/postemergence plant response
- Type: in vivo
- Condition Summary: Preemergence, 125 g ai/ha; 0 to 100 scale (0 no effect, 100 complete control)
Form: value (number only, do not type unit).

Would you please look over these solved cases?
CCc1cc(-c2ccc(F)cc2)nn1-c1c(O)cnn(C)c1=O    50
C#CCOC(=O)Oc1cnn(C)c(=O)c1-n1nc(-c2ccc(Cl)cc2)cc1C    70
Cc1nc(-c2ccc(C(F)(F)F)cc2)sc1-c1c(O)cnn(C)c1=O    0
Cn1ncc(O)c(-c2nn(-c3ccc(C(F)(F)F)cn3)cc2Br)c1=O    50
CCc1cc(-c2ccc(Cl)cc2)nn1-c1c(OC(=O)C(C)(C)C)cnn(C)c1=O    90

Considering CCc1cc(-c2ccc(C(F)(F)F)cc2)nn1-c1c(OS(C)(=O)=O)cnn(C)c1=O , its Plant response rating, Wheat with wheat (Triticum aestivum) was recorded as 90

Considering Cc1cc(-c2ccc(Cl)cc2)nn1-c1c(OC(=O)c2ccccc2)cnn(C)c1=O , its Plant response rating, Wheat with wheat (Triticum aestivum) was recorded as 80

Considering COc1ccc(-c2cc(C)n(-c3c(O)cnn(C)c3=O)n2)cc1 , its Plant response rating, Wheat with wheat (Triticum aestivum) was recorded as 0

Considering Cc1cc(-c2ccc(OC(F)(F)F)cc2)nn1-c1c(OC(=O)OC(C)C)cnn(C)c1=O , its Plant response rating, Wheat with wheat (Triticum aestivum) was recorded as 20

Considering Cc1cc(-c2ccc(Br)cc2)nn1-c1c(O)cnn(C)c1=O , its Plant response rating, Wheat with wheat (Triticum aestivum) was recorded as 70

Considering CCc1cc(-c2ccc(C(F)(F)F)cc2)nn1-c1c(OC(=O)C2CCCCC2)cnn(C)c1=O , its Plant response rating, Wheat with wheat (Triticum aestivum) was recorded as 90

Considering Cc1cn(-c2ccc(Cl)cn2)nc1-c1c(O)cnn(C)c1=O , its Plant response rating, Wheat with wheat (Triticum aestivum) was recorded as 0

---

- Test system: bermudagrass (Cynodon dactylon)
- Protocol: Test B pre-/postemergence plant response
- Assay type: in vivo
- Condition Summary: Postemergence, 16 g ai/ha; scale 0 to 100
Readout Type: Plant response rating, Bermudagrass
Form: value (number only, do not type unit).

Would you please look over these solved cases?
CCc1cc(-c2ccc(Cl)c(Cl)c2)nn1-c1c(O)cnn(C)c1=O [Compound 20]    0
Cc1cc(-c2ccc(Cl)cc2)nn1-c1c(OS(C)(=O)=O)cnn(C)c1=O [Compound 36]    80
CCc1cc(-c2ccc(C(F)(F)F)cc2)nn1-c1c(OS(C)(=O)=O)cnn(C)c1=O [Compound 19]    100

Shift focus to the following entry.
Noted for Cc1cc(-c2ccc(Cl)cc2)nn1-c1c(OC(=O)C(C)C)cnn(C)c1=O [Compound 34] : its Plant response rating, Bermudagrass reads 100

---

- Tested on: annual bluegrass (Poa annua)
- Protocol: Test C pre-/postemergence plant response
- Type: in vivo
- Condition Summary: Preemergence, 62 g ai/ha; scale 0 to 100, 0 no effect, 100 complete control
Readout Type: Plant response rating, Bluegrass
Form: value (number only, do not type unit).

Would you please look over these solved cases?
Cc1cn(-c2ccc(Cl)cc2)nc1-c1c(O)cnn(C)c1=O    0
CCc1cc(-c2ccc(C(F)(F)F)cc2)nn1-c1c(O)cnn(C)c1=O    30
COC(=O)Oc1cnn(C)c(=O)c1-n1nc(-c2ccc(Cl)cc2)cc1C    0

Noted for Cc1cc(-c2ccc(Cl)cc2)nn1-c1c(OC(=O)c2ccccc2)cnn(C)c1=O : its Plant response rating, Bluegrass reads 0

---

# Plant response rating, Blackgrass annotations
- Tested on: blackgrass (Alopecurus myosuroides)
- Protocol: Test C pre-/postemergence plant response
- Format: in vivo
- Condition Summary: Preemergence, 16 g ai/ha; scale 0 to 100 (0 no effect, 100 complete control)
Form: value (number only, do not type unit).

CCc1cc(-c2ccc(F)cc2)nn1-c1c(O)cnn(C)c1=O [Compound 25]    50

Considering CCc1cc(-c2ccc(Cl)cc2)nn1-c1c(OC(=O)OC(C)C)cnn(C)c1=O [Compound 41] , its Plant response rating, Blackgrass with blackgrass (Alopecurus myosuroides) was recorded as 100

Considering CCc1cc(-c2ccc(C(F)(F)F)cc2)nn1-c1c(OS(C)(=O)=O)cnn(C)c1=O [Compound 19] , its Plant response rating, Blackgrass with blackgrass (Alopecurus myosuroides) was recorded as 100

Considering Cc1cc(-c2ccc(Cl)cc2)nn1-c1c(OS(=O)(=O)c2ccccc2[N+](=O)[O-])cnn(C)c1=O [Compound 51] , its Plant response rating, Blackgrass with blackgrass (Alopecurus myosuroides) was recorded as 35

Considering Cn1ncc(O)c(-c2nn(-c3ccc(Cl)cc3)cc2Cl)c1=O [Compound 28] , its Plant response rating, Blackgrass with blackgrass (Alopecurus myosuroides) was recorded as 5
